Taken from patent US7951829B2.

Could you please report measured pIC50 for the items listed next?
Target: hVR1 (Homo sapiens)
Sequence (Q8NER1 whole entry): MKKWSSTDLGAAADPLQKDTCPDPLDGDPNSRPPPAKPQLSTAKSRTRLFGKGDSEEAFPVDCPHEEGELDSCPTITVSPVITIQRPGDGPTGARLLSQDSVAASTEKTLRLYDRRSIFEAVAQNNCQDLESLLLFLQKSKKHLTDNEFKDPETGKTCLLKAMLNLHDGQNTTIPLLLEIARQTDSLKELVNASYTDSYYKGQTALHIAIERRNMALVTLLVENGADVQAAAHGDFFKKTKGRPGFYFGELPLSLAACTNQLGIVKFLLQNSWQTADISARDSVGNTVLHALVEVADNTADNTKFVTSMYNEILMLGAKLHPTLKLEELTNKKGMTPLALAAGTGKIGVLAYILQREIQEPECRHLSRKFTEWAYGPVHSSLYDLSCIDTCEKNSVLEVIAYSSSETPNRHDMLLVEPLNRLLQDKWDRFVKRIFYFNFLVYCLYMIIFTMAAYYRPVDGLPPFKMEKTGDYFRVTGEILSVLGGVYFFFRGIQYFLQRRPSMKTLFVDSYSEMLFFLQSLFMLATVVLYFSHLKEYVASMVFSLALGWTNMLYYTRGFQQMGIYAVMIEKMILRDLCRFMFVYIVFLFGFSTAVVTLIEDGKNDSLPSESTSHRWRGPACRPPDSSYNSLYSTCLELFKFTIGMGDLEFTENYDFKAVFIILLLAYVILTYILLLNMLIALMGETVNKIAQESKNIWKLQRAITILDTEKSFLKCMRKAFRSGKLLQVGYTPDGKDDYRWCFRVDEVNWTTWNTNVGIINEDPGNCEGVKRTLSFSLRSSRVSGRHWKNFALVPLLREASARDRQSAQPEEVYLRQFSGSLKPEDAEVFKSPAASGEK
Assay: Human VR1 (hVR1) Functional Assay (FLIPR intracellular calcium, capsaicin challenge)
Conditions: capsaicin 0.030 μM; HEK293 cells expressing hVR1
Give bare numbers, as −log10 of the molar value.

The following molecules have reported results that may help.
Molecule	pIC50
CC(C)(C)c1ccc(CCc2nc3cc(-c4cccc(O)c4)ccc3[nH]2)cc1 [Cpd 33]	5.77
CC(C)(O)c1ccccc1-c1ccc2[nH]c(/C=C/c3cccc(C(F)(F)F)c3)nc2c1 [Cpd 114]	8.52
CNS(=O)(=O)c1ccccc1-c1ccc2[nH]c(/C=C/c3ccccc3Cl)nc2c1 [Cpd 346]	6.58
CNS(=O)(=O)c1ccccc1-c1ccc2[nH]c(/C=C/c3cccc(OC(F)(F)F)c3)nc2c1 [Cpd 344]	7.62
NS(=O)(=O)c1ccccc1-c1ccc2[nH]c(/C=C/c3ccc(F)c(F)c3)nc2c1 [Cpd 358]	8.05

For each of the molecules below, state pIC50.
1. CN(C)c1ccc(/C=C/c2nc3cc(-c4ccccc4NS(C)(=O)=O)ccc3[nH]2)cc1 [Cpd 413]
2. NS(=O)(=O)c1ccccc1-c1ccc2[nH]c(/C=C/c3ccc(C(F)(F)F)cc3F)nc2c1 [Cpd 424]
3. CS(=O)(=O)Nc1ccccc1-c1ccc2[nH]c(/C=C/c3ccc(OC(F)(F)F)cc3)nc2c1 [Cpd 22]

[A]
[6.62, 7.96, 7.74]

For each of the molecules below, state pIC50.
1. NS(=O)(=O)c1ccccc1-c1ccc2[nH]c(/C=C/c3c(F)cccc3F)nc2c1 [Cpd 372]
2. CNS(=O)(=O)c1ccccc1-c1ccc2[nH]c(/C=C/c3ccc(Br)cc3)nc2c1 [Cpd 312]
3. NS(=O)(=O)c1ccccc1-c1ccc2[nH]c(CCc3ccc(F)cc3F)nc2c1 [Cpd 392]
4. NS(=O)(=O)c1cc(C(F)(F)F)ccc1-c1ccc2[nH]c(CCc3ccc(C(F)(F)F)cc3)nc2c1 [Cpd 447]
5. CNS(=O)(=O)c1ccccc1-c1ccc2[nH]c(/C=C/c3ccc(Cl)cc3F)nc2c1 [Cpd 339]
6. CNS(=O)(=O)c1ccccc1-c1ccc2[nH]c(/C=C/c3cc(C(F)(F)F)cc(C(F)(F)F)c3)nc2c1 [Cpd 333]
7. NS(=O)(=O)c1ccccc1-c1ccc2[nH]c(/C=C/c3ccccc3)nc2c1 [Cpd 426]
8. NS(=O)(=O)c1ccccc1-c1ccc2[nH]c(/C=C/c3cc(F)cc(F)c3)nc2c1 [Cpd 361]

[A]
7.15
8.22
8.00
7.36
7.57
7.57
7.66
7.57

get_value(item= CC(=O)Nc1ccccc1-c1cc2nc(/C=C/c3ccc(C(C)(C)C)cc3)[nH]c2cc1C(F)(F)F [Cpd 50] , readout=pIC50) returns 7.00

---

Target: hVR1 (Homo sapiens)
Construct: expressed in transfected cells; host or cells: HEK293
Test: Human VR1 (hVR1) Functional Assay (FLIPR intracellular calcium, capsaicin challenge)
Type: cell-based
Conditions: test concentration 1 μM; capsaicin 0.030 μM; HEK293 cells expressing hVR1
Property: inhibition at 1 µM (%)
Numbers only, in %.

For each of the compounds below, state inhibition at 1 µM.
1. CC(=O)Nc1ccccc1-c1ccc2[nH]c(CCc3ccc(C(F)(F)F)cc3)nc2c1 [Cpd 457]
2. Oc1ccccc1-c1cc2nc(/C=C/c3ccc(C(F)(F)F)cc3)[nH]c2cc1F [Cpd 59]
3. NS(=O)(=O)c1ccccc1-c1ccc2[nH]c([C@@H]3C[C@H]3c3ccc(C(F)(F)F)cc3)nc2c1 [Cpd 502]

[A]
22
80
82

get_value(item= CC(=O)c1ccc(/C=C/c2nc3cc(-c4ccccc4C(C)(C)O)ccc3[nH]2)cc1 [Cpd 448] , readout=inhibition at 1 µM) returns 99
